Where these numbers come from: patent US20260124309A1

Biological target: biotinylated truncated STAT6 (123-632)-avi (Homo sapiens)
Construct: biotinylated truncated STAT6 (123-632)-avi purified from E. coli; made in house; host or cells: E. coli
Sequence (P42226 123-632 limits assumed): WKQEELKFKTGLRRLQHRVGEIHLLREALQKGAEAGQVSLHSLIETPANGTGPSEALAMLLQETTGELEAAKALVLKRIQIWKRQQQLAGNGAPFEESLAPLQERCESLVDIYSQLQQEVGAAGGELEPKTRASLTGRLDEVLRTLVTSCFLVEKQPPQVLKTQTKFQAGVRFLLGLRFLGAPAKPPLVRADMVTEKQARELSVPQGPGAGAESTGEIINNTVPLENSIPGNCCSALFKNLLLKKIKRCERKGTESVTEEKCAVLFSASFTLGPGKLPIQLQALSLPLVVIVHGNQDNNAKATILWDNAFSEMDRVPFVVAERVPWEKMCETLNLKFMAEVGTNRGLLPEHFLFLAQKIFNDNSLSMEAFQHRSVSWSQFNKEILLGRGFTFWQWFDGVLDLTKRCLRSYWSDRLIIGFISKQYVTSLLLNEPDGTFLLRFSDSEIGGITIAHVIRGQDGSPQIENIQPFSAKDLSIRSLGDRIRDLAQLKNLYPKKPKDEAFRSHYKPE
Assay: STAT6 HTRF binding assay
Conditions: HTRF binding, 0.15 nM biotinylated truncated STAT6 (123-632)-avi, 20 nM fluorescein-labeled probe
pIC50: −log10 of the molar value.
compounds and their reported pIC50

Cc1cc(C2CCN(c3cccc4c3n(C)c(=O)n4C3CCC(=O)NC3=O)CC2)ccc1-c1cc(C2=CCCN(C(=O)C(C)C)C2)c(F)c2[nH]c(C(=O)N(C)C)cc12 (centres unmarked); 5.00 to 6.00
CN(C)C(=O)c1cc2c(F)c(C3=CCCN(C(=O)CCn4cccn4)C3)cc(-c3ccc(C4CN(C(=O)c5ccc(Cl)c(C6CCC(=O)NC6=O)c5)C4)cc3)c2o1 (centres unmarked); > 7.00
COc1cc(N2CCN(c3ccc(-c4cc(C5=CCCN(C(=O)CCn6cccn6)C5)c(F)c5[nH]c(C(=O)N(C)C)cc45)c(F)c3F)CC2)c(F)cc1N[C@H]1CCC(=O)NC1=O (single isomer, unassigned); > 7.00
COc1cc(N2CCN(CCOCC3CCN(c4ccnc(N5CC[C@@H]6[C@H]5CCCN6c5cccc(F)c5)c4)CC3)CC2)ccc1-c1cc(C2=CCCN(C(=O)CCn3ccnn3)C2)c(F)c2[nH]c(C(=O)N(C)C)cc12; > 7.00

Incoming: Give the reported pIC50 for this compound. CN(C)C(=O)c1cc2c(-c3ccc(C4CCN(c5ccc(C6CCC(=O)NC6=O)cc5F)CC4)cc3)cc(C3=CCCN(C(=O)CCn4ccnn4)C3)c(F)c2[nH]1 (centres unmarked) [Example I-1015]
Outgoing: > 7.00

====

Molecular target: STAT6 (Homo sapiens)
Construct: endogenous in cells; host or cells: A549
Sequence (P42226 whole entry): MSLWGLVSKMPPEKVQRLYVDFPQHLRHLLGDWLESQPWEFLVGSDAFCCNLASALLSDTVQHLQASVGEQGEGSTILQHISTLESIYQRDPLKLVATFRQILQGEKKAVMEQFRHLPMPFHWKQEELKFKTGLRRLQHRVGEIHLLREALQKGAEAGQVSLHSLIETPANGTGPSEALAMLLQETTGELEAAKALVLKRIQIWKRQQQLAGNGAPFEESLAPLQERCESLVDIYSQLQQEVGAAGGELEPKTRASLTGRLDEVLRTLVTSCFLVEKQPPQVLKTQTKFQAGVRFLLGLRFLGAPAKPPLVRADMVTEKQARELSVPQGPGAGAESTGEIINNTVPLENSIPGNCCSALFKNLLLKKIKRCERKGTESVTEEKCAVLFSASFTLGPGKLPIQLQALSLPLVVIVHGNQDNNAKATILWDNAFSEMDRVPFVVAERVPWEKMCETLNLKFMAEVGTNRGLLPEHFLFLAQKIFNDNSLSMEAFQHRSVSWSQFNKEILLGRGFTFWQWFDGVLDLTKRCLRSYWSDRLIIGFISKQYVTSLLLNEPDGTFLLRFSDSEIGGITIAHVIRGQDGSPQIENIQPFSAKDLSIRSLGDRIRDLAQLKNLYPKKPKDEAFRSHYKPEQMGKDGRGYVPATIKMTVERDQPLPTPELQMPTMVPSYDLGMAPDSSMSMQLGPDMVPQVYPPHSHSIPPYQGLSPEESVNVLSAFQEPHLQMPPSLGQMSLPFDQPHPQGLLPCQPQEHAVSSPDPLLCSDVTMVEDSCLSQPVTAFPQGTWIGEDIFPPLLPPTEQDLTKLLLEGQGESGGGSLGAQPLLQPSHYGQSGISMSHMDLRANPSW
Test: STAT6 MSD degradation in A549 cells
Assay type: cell-based
Conditions: 24 h
property_measured: Dmax

Known Dmax results, listed for orientation:
CN(C)C(=O)c1cc2c(F)c(C3CCCN(C(=O)CCn4cccn4)C3)cc(-c3ccc(N4CCN(CCc5ccc(C6CCC(=O)NC6=O)c(Cl)c5)CC4)cc3)c2o1 (single isomer, unassigned) [Example I-281]; 70 to 90%
COc1cc(N2CCN(c3ccc(-c4cc(C5=CCCN(C(=O)CCn6cccn6)C5)c(F)c5[nH]c(C(=O)N(C)C)cc45)cc3)CC2)c(F)cc1N[C@@H]1CCC(=O)NC1=O (single isomer, unassigned) [Example I-794]; 70 to 90%
CN(C)C(=O)c1cc2c(-c3ccc(C4CCN(c5ccc([C@@H]6CCC(=O)NC6=O)cc5F)CC4)cc3)cc(C3=CCCN(C(=O)CCn4cccn4)C3)c(F)c2[nH]1 (single isomer, unassigned) [Example I-742]; > 90%
COc1cc(N2CCC(c3ccc(-c4cc(C5=CCCN(C(=O)CCn6cccn6)C5)c(F)c5[nH]c(C(=O)N(C)C)cc45)c(OC(F)(F)F)c3)CC2)c(F)cc1N[C@H]1CCC(=O)NC1=O (single isomer, unassigned) [Example I-793]; 70 to 90%
COc1cc(N2CCN(c3ccc(-c4cc(C5=CCCN(C(=O)CCn6cccn6)C5)c(F)c5[nH]c(C(=O)N(C)C)cc45)c(F)c3F)CC2)c(F)cc1NC1CCC(=O)NC1=O (stereo not drawn) [Example I-677]; > 90%
COc1cc(N2CCN(c3ccc(-c4cc(C5=CCCN(C(=O)CCn6cccn6)C5)c(F)c5[nH]c(C(=O)N(C)C)cc45)c(F)c3F)CC2)c(F)cc1N[C@H]1CCC(=O)NC1=O (single isomer, unassigned) [Example I-745]; > 90%
COc1cc(N2CCC(c3ccc(-c4cc(C5=CCCN(C(=O)CCn6cccn6)C5)c(F)c5[nH]c(C(=O)N(C)C)cc45)c(OC(F)(F)F)c3)CC2)c(F)cc1N[C@@H]1CCC(=O)NC1=O (single isomer, unassigned) [Example I-792]; 70 to 90%
CN(C)C(=O)c1cc2c(-c3ccc(C4CCN(c5ccc(N[C@H]6CCC(=O)NC6=O)cc5F)CC4)cc3)cc(C3=CCCN(C(=O)CCn4cccn4)C3)c(F)c2[nH]1 (single isomer, unassigned) [Example I-796]; 70 to 90%

Incoming: Give the reported Dmax for this compound. COc1cc(N2CCN(c3ccc(-c4cc(C5=CCCN(C(=O)CCn6cccn6)C5)c(F)c5[nH]c(C(=O)N(C)C)cc45)c(F)c3F)CC2)c(F)cc1N[C@@H]1CCC(=O)NC1=O (single isomer, unassigned) [Example I-744]
Outgoing: > 90%
